# targetSystem: HLA-B*08:01 (Homo sapiens, UniProt P01889, A93T/A95T/D138N/E176V/E187T/K202T/Q94N/R180D/S35A/V36M/Y33D/Y91F)
# experimentSummary: REVEAL Epitope Discovery System in vitro MHC-peptide binding assay
# details: binding normalized to positive control peptide set at 100%, >50 considered good or high affinity binding
# Procedure: Actual binding affinities for certain HLA class I alleles (A*02:01, A*03:01, A*11:01, and B*08:01) were assessed in vitro for exemplary overlapping 9 amino acid peptide sequences within a portion of the 26 amino acid junction region spanning the CD28 and 4-1BB junction. […] In addition, a series of overlapping 9-mer peptides of each of a number of different variants of this portion also were assessed, each variant containing a mutation or mutations in this region as described in Example 2. […]
No end group written: not given here.
Quick reference for B*08:01 In Vitro Score among some sequences

Below, each entry is followed by its recorded B*08:01 In Vitro Score result.
FWVSRGRKK	0.00
VAFIIFWVK	0.30

Data request: // fetch B*08:01 In Vitro Score given entry "AFIIFWVLR"
Data returned: 0.20

Data request: // fetch B*08:01 In Vitro Score given entry "IFWVKRGRK"
Data returned: 0.40

Data request: // fetch B*08:01 In Vitro Score given entry "IIFWVKRGH"
Data returned: 0.10

====

# targetSystem: HLA-B*08:01 (Homo sapiens, UniProt P01889, A93T/A95T/D138N/E176V/E187T/K202T/Q94N/R180D/S35A/V36M/Y33D/Y91F)
# experimentSummary: REVEAL Epitope Discovery System in vitro MHC-peptide binding assay
# details: binding normalized to positive control peptide set at 100%, >50 considered good or high affinity binding
No end group written: not given here.
Label 1 when B*08:01 In Vitro Score is at or above 0.4; otherwise label 0.

# count of solved cases: 3
VAFIIFWVQ	0
WVKRGRKKL	1
WVSRGRKKL	1

Next:
Data request: Determine whether this sequence has B*08:01 In Vitro Score no lower than 0.4: "AFIIFWVAR"
Data returned: 0

====

# targetSystem: HLA-A*02:01 (Homo sapiens, UniProt P04439, D140Y/D185E/D98H/E176V/E277Q/G131W/G231S/I119V/I121R/I166T/I218V/L300P/L318F/N151K/N90K/P208A/P217A/Q86G/Q94H/R138H/R169H/T345S)
# experimentSummary: REVEAL Epitope Discovery System in vitro MHC-peptide binding assay
# details: binding normalized to positive control peptide set at 100%, greater than 50 considered good or high affinity binding
Quick reference for A*02:01 In Vitro Score among some molecules
A bare number is all that is needed in reply.

Below, each entry is followed by its recorded A*02:01 In Vitro Score result.
CC[C@H](C)[C@H](N)C(=O)N[C@H](C(=O)N[C@@H](Cc1ccccc1)C(=O)N[C@@H](Cc1c[nH]c2ccccc12)C(=O)N[C@H](C(=O)N[C@@H](CCCCN)C(=O)N[C@@H](CCCNC(=N)N)C(=O)NCC(=O)N[C@@H](CC(N)=O)C(=O)O)C(C)C)[C@@H](C)CC	9.30
CC[C@H](C)[C@H](NC(=O)[C@H](Cc1ccccc1)NC(=O)[C@H](C)N)C(=O)N[C@H](C(=O)N[C@@H](Cc1ccccc1)C(=O)N[C@@H](Cc1c[nH]c2ccccc12)C(=O)N[C@H](C(=O)N[C@@H](CCCNC(=N)N)C(=O)N[C@@H](CCCNC(=N)N)C(=O)O)C(C)C)[C@@H](C)CC	1.40
CC(C)[C@H](NC(=O)[C@H](Cc1c[nH]c2ccccc12)NC(=O)[C@@H](N)Cc1ccccc1)C(=O)N[C@@H](CCCCN)C(=O)N[C@@H](CCCNC(=N)N)C(=O)NCC(=O)N[C@@H](CC(N)=O)C(=O)N[C@@H](CCCCN)C(=O)N[C@@H](CCCCN)C(=O)O	8.70

Data request: // fetch A*02:01 In Vitro Score given entry "CC(C)C[C@H](NC(=O)[C@H](CCCCN)NC(=O)[C@H](CCCCN)NC(=O)[C@H](CCCNC(=N)N)NC(=O)CNC(=O)[C@H](CCCNC(=N)N)NC(=O)[C@H](C)NC(=O)[C@@H](NC(=O)[C@@H](N)Cc1c[nH]c2ccccc12)C(C)C)C(=O)O"
Data returned: 8.80

====

Quick reference for A*03:01 In Vitro among some molecules
# targetSystem: HLA-A*03:01 (Homo sapiens)
# experimentSummary: REVEAL Epitope Discovery System in vitro MHC-peptide binding assay
# details: REVEAL score, binding normalized to positive control peptide set at 100%; greater than 50 considered good or high affinity binding
A bare number is all that is needed in reply.

Data request: // fetch A*03:01 In Vitro given entry "CC(C)[C@H](NC(=O)[C@@H](N)Cc1c[nH]c2ccccc12)C(=O)N[C@@H](CCC(N)=O)C(=O)N[C@@H](CCCNC(=N)N)C(=O)NCC(=O)N[C@@H](CC(N)=O)C(=O)N[C@@H](CCCCN)C(=O)N[C@@H](CCCCN)C(=O)N[C@@H](CO)C(=O)O"
Data returned: 0.70

Data request: // fetch A*03:01 In Vitro given entry "CC(C)C[C@H](NC(=O)[C@H](CCCCN)NC(=O)[C@H](CCCCN)NC(=O)[C@H](CO)NC(=O)CNC(=O)[C@H](CCCNC(=N)N)NC(=O)[C@H](CCC(N)=O)NC(=O)[C@@H](NC(=O)[C@@H](N)Cc1c[nH]c2ccccc12)C(C)C)C(=O)O"
Data returned: 1.20

Data request: // fetch A*03:01 In Vitro given entry "CC[C@H](C)[C@H](N)C(=O)N[C@H](C(=O)N[C@@H](Cc1ccccc1)C(=O)N[C@@H](Cc1c[nH]c2ccccc12)C(=O)N[C@H](C(=O)N[C@@H](CC(C)C)C(=O)N[C@@H](CCCNC(=N)N)C(=O)NCC(=O)N[C@@H](CCCNC(=N)N)C(=O)O)C(C)C)[C@@H](C)CC"
Data returned: 2.80

Data request: // fetch A*03:01 In Vitro given entry "CC[C@H](C)[C@H](N)C(=O)N[C@@H](Cc1ccccc1)C(=O)N[C@@H](Cc1c[nH]c2ccccc12)C(=O)N[C@H](C(=O)N[C@@H](CCCCN)C(=O)N[C@@H](CCCNC(=N)N)C(=O)NCC(=O)N[C@@H](Cc1c[nH]cn1)C(=O)N[C@@H](CCCCN)C(=O)O)C(C)C"
Data returned: 9.00

====

# targetSystem: HLA-A*02:01 (Homo sapiens, UniProt P04439, D140Y/D185E/D98H/E176V/E277Q/G131W/G231S/I119V/I121R/I166T/I218V/L300P/L318F/N151K/N90K/P208A/P217A/Q86G/Q94H/R138H/R169H/T345S)
# experimentSummary: REVEAL Epitope Discovery System in vitro MHC-peptide binding assay
# details: binding normalized to positive control peptide set at 100%, greater than 50 considered good or high affinity binding
No end group written: not given here.
Quick reference for A*02:01 In Vitro Score among some sequences
A bare number is all that is needed in reply.

FWVHRGRKK	1.60

Data request: // fetch A*02:01 In Vitro Score given entry "VAFIIFWVQ"
Data returned: 5.30

Data request: // fetch A*02:01 In Vitro Score given entry "IFWVQRGSK"
Data returned: 33.50

====

# targetSystem: HLA-A*11:01 (Homo sapiens, UniProt P04439, A114D/D185E/E176A/F33Y/L180Q/S129P/T187R)
# experimentSummary: REVEAL Epitope Discovery System in vitro MHC-peptide binding assay
# details: binding normalized to positive control peptide set at 100%, >50 considered good or high affinity binding
No end group written: not given here.
Quick reference for A*11:01 In Vitro Score among some sequences
A bare number is all that is needed in reply.

Below, each entry is followed by its recorded A*11:01 In Vitro Score result.
IFWVKRGSK	47.90
IIFWVQRGS	16.90
AFIIFWVQR	15.00
IIFWVHRGR	77.50
IIFWVKRGA	22.60
FIIFWVKRG	0.40
FWVQRGNKK	5.90
IIFWVSRGR	68.90

Data request: // fetch A*11:01 In Vitro Score given entry "VAFIIFWVS"
Data returned: 25.10

Data request: // fetch A*11:01 In Vitro Score given entry "AFIIFWVKR"
Data returned: 25.90

====

# targetSystem: HLA-A*02:01 (Homo sapiens, UniProt P04439, D140Y/D185E/D98H/E176V/E277Q/G131W/G231S/I119V/I121R/I166T/I218V/L300P/L318F/N151K/N90K/P208A/P217A/Q86G/Q94H/R138H/R169H/T345S)
# experimentSummary: REVEAL Epitope Discovery System in vitro MHC-peptide binding assay
# details: binding normalized to positive control peptide set at 100%, greater than 50 considered good or high affinity binding
No end group written: not given here.
propertyMeasured: A*02:01 In Vitro Score

FWVQRGSKK	0.80

Data request: // fetch A*02:01 In Vitro Score given entry "IIFWVQRGS"
Data returned: 22.40

Data request: // fetch A*02:01 In Vitro Score given entry "IFWVKRGRK"
Data returned: 4.50

Data request: // fetch A*02:01 In Vitro Score given entry "FIIFWVKRG"
Data returned: 10.10

Data request: // fetch A*02:01 In Vitro Score given entry "IIFWVKRGL"
Data returned: 82.20

Data request: // fetch A*02:01 In Vitro Score given entry "WVKRGRKKS"
Data returned: 3.90

Data request: // fetch A*02:01 In Vitro Score given entry "IFWVQRGRK"
Data returned: 6.10

Data request: // fetch A*02:01 In Vitro Score given entry "AFIIFWVSR"
Data returned: 4.50
